What self-cleavage was measured for each of the following?
B1: CPEB3 Ribozyme (parent)
chain: GGGGGCCACAGCAGAAGCGUUCACGUCGCGGCCCCUGUCAGAUUCUGGUGAAUCUGCGAAUUCUGCUGU

Variants of: B1
Test: self-cleavage, relative activity (ratio to wild type); higher = more cleavage; co-transcriptional
Give bare numbers.

Please report self-cleavage for every entry that follows.
1. C9A A10C
2. G11A G50A
3. G25U U62G
4. G1U G37U
5. G58U U69C
6. G1A G30U

RESULT:
[1.02, 0.852, 0.116, 0.0468, 1.06, 0.0869]

// data source = the RNAGym collection of RNA variant scans (doi:10.7554/elife.80360)
